Molecular target: human recombinant HDAC6 (Homo sapiens, UniProt Q9UBN7)
Construct: purchased Calbiochem 382180
Sequence (Q9UBN7 whole entry): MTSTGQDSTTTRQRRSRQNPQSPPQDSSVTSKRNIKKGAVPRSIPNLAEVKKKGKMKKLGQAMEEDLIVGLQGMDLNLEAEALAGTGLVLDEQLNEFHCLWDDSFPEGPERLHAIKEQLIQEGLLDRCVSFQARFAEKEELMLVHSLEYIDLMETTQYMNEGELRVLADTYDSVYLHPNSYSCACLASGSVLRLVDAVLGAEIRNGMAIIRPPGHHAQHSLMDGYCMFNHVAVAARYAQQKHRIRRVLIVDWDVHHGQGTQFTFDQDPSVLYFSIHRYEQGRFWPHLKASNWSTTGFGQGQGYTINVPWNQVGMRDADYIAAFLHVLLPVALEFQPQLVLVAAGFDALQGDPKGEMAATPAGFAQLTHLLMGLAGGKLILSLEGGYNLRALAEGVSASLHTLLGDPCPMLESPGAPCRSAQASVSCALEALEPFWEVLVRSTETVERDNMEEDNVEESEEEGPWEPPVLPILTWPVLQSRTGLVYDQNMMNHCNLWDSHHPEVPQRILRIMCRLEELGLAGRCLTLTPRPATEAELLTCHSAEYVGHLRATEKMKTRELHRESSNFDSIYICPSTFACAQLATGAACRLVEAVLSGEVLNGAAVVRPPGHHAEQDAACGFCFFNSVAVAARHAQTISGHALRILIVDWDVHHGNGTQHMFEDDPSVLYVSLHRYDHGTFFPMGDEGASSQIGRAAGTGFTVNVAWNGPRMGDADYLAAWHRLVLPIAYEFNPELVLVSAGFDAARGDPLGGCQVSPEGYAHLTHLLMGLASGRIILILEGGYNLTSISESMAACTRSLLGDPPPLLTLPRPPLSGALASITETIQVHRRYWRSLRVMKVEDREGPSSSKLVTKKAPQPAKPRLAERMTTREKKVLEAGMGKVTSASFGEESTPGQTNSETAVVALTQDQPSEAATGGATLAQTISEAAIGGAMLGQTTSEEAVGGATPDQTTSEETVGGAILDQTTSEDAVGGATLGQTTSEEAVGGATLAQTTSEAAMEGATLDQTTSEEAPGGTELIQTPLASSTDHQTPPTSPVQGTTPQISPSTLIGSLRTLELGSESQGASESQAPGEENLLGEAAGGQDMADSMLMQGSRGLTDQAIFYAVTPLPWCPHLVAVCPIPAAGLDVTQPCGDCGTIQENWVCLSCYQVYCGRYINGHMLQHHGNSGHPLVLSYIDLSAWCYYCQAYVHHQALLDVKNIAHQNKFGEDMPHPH
Assay: HDAC6 enzyme activity inhibition assay (HDAC Fluorimetric Drug Discovery Kit)
Assay type: biochemical
Conditions: HDAC6 over HDAC1
Returns one of 1.0 or 0.0; 1.0 when HDAC6 selectivity (fold) is >= 100 fold.

| MOLECULE | QUALITATIVE LABEL |
| --- | --- |
| O=C(NCCN1CCN(C/C=C/c2ccccc2)CC1)N(Cc1ccc(-c2nnc(C(F)F)o2)cc1F)c1ccccc1 [Compound 22016] | 0.0 |
| CC(=O)N1CCN(CCNC(=O)N(Cc2ccc(-c3nnc(C(F)F)o3)cc2F)c2ccccc2)CC1 [Compound 21995] | 1.0 |
| O=C(N1CCS(=O)(=O)CC1)N(Cc1ccc(-c2nnc(C(F)F)o2)cc1F)c1ccc(F)c(Cl)c1 [Compound 21531] | 1.0 |
| CC(C)C(=O)N1CCN(C(=O)N(Cc2ccc(-c3nnc(C(F)(F)F)o3)cc2)c2ccccc2)CC1 [Compound 21365] | 0.0 |
| CN(C)[C@@H]1CCN(C(=O)N(Cc2ccc(-c3nnc(C(F)F)o3)cn2)c2ccc(F)c(Cl)c2)C1 [Compound 21602] | 1.0 |
| CN1CCN(C(=O)N(Cc2ccc(-c3nnc(C(F)F)o3)cc2F)c2ccc(Cl)cc2)CC1 [Compound 21468] | 1.0 |
| CN1CCN(C(=O)N(Cc2ccc(-c3nnc(C(F)F)o3)cc2F)c2cccc3c2cnn3C)CC1 [Compound 21709] | 1.0 |

---

Target: human recombinant HDAC6 (Homo sapiens, UniProt Q9UBN7)
Construct: purchased Calbiochem 382180
Experiment: HDAC6 enzyme activity inhibition assay (HDAC Fluorimetric Drug Discovery Kit)
Format: biochemical
Conditions: human recombinant HDAC6, same protocol as HDAC1; read-out: HDAC6
// classify: if (IC50 < 500 nM) condition met else condition not met

| TEST SMILES | QUALITATIVE LABEL |
| --- | --- |
| C[C@@H]1CN(Cc2ccccc2)C[C@H](C)N1Cc1ccc(N(Cc2ccc(-c3nnc(C(F)F)o3)cc2F)C(=O)N2CCS(=O)(=O)CC2)cc1 | condition not met |
| Cc1nnc(N(Cc2ccc(-c3nnc(C(F)F)o3)cc2F)C(=O)N2CCS(=O)(=O)CC2)s1 | condition not met |
| CCN1CCN(C(=O)N(Cc2ccc(-c3nnc(C(F)(F)F)o3)cc2)c2ccc(Cl)cc2)CC1 | condition met |
| Cn1ccc2cc(N(Cc3ccc(-c4nnc(C(F)F)o4)cc3F)C(=O)N3CCS(=O)(=O)CC3)ccc21 | condition met |
| O=C(N1CCOCC1)N(Cc1ccc(-c2nnc(C(F)(F)F)o2)cc1)c1ccccc1 | condition met |
| O=C(N1CCS(=O)(=O)CC1)N(Cc1ccc(-c2nnc(C(F)F)o2)cc1F)c1ccc(F)cn1 | condition met |
| CCN1CCN(C(=O)N(Cc2ccc(-c3nnc(C(F)(F)F)o3)cc2F)c2ccc(F)c(Cl)c2)CC1 | condition met |

---

Catalogue of IC50 values
Molecular target: human recombinant HDAC6 (Homo sapiens)
Construct: purchased Calbiochem 382180
Assay: HDAC6 enzyme activity inhibition assay (HDAC Fluorimetric Drug Discovery Kit)
Assay type: biochemical
Conditions: human recombinant HDAC6, same protocol as HDAC1; read-out: HDAC6
QUANTITY MEASURED: IC50 (nM)

| TEST SMILES | SUBJECT OF TEST | RESULT UNITS | REPORTED VALUE |
| --- | --- | --- | --- |
| CN1CC2(CCN(C(=O)N(Cc3ccc(-c4nnc(C(F)F)o4)cc3F)c3ccccc3)CC2)C1 | human recombinant HDAC6 (Homo sapiens) | nM | 20 |
| O=C(N1CCC1)N(Cc1ccc(-c2nnc(C(F)(F)F)o2)cc1)c1ccccc1 | human recombinant HDAC6 (Homo sapiens) | nM | 430 |
| O=C(N1CCOCC1)N(Cc1ccc(-c2nnc(C(F)F)o2)cn1)c1cccc(Cl)c1 | human recombinant HDAC6 (Homo sapiens) | nM | 25 |
| Cc1nnc(N(Cc2ccc(-c3nnc(C(F)F)o3)cc2F)C(=O)N2CCOCC2)s1 | human recombinant HDAC6 (Homo sapiens) | nM | 1030 |
